TARGET_DESC: human Mitogen-Activated Protein Kinase 1 (MAPK 1), MAPK1 (gene 5594) (UniProt P28482)
Sequence (P28482 whole entry, looked up): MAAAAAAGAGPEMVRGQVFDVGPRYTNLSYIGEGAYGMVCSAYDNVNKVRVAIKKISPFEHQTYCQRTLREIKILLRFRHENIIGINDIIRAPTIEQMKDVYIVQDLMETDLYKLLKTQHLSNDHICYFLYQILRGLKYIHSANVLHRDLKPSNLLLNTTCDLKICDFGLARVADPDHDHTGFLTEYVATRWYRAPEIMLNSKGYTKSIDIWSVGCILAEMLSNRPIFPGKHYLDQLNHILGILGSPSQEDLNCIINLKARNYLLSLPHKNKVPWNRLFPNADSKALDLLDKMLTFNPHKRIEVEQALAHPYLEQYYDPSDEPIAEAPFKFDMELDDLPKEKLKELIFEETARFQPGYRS
ASSAY_OVERVIEW: NVS_ENZ_hMAPK1: NovaScreen (NVS) Enzymatic Assay for human Mitogen-Activated Protein Kinase 1 (MAPK 1) (AID 2283175)
Results filed as inconclusive are left out. The source made the active and inactive calls. How the source made its calls: active means hit-call score of the fitted dose curve at least 0.9, where 1 is the maximum; inconclusive means response in the unintended direction; inactive means score below 0.9.
Your reply should match one of these outcome classes. t = active, f = inactive

**Q:** Name the outcome recorded for CN(C)C(=O)NC1(c2ccccc2)CCN(CCC[C@]2(c3ccc(Cl)c(Cl)c3)CCCN(C(=O)c3ccccc3)C2)CC1 in the assay.
**A:** f

**Q:** Short answer needed: outcome of this test for c1ccc2ccccc2c1 ?
**A:** f

**Q:** In this assay, the call recorded for COCCO was what?
**A:** f

**Q:** Outcome logged for CCc1c(C(=O)NN2CCCCC2)nn(-c2ccc(Cl)cc2Cl)c1-c1ccc(Br)cc1 in this assay:
**A:** f

**Q:** Hey, what did the test say about CCCc1cc(=O)[nH]c(=S)[nH]1 ?
**A:** f

**Q:** How did this test come out for CC(C)CCCCCCc1ccc(O)cc1 ?
**A:** f

**Q:** Outcome? S=C([S-])NCCNC(=S)[S-].[Mn+2]
**A:** t

**Q:** Could you kindly confirm the outcome this assay logged for CCCCCCCC=O ?
**A:** f

**Q:** So what was the verdict on CCCOc1ccc(S(=O)(=O)N2CCN(CC)CC2)cc1-c1nc2c(CC)n(Cc3ccccn3)nc2c(=O)[nH]1 in this test?
**A:** f

**Q:** Status in this test for COc1ccc(OC(F)(F)F)cc1CN[C@H]1CCCN[C@H]1c1ccccc1 ?
**A:** f

**Q:** // return assay outcome for NCCO
**A:** f

**Q:** Short answer needed: outcome of this test for Cc1ccc(-c2cc(C(F)(F)F)nn2-c2ccc(S(N)(=O)=O)cc2)cc1 ?
**A:** f

**Q:** Fill in: this test's call for CC(C)(c1ccc(O)cc1)c1ccc(O)cc1 is ___
**A:** f

**Q:** What did the test return for COCCOC[C@H](CC1(C(=O)NC2CCC(C(=O)O)CC2)CCCC1)C(=O)Oc1ccc2c(c1)CCC2 (some centres undefined) ?
**A:** f

---

ASSAY_OVERVIEW: TOX21_p53_BLA_p4_viability: Viability Assessment in the Tox21 HCT-116 p53 Agonism Beta-lactamase Assay, Phase 4 (AID 2283597);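 further: hits lower the luminescence signal meaning cytotoxicity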
Inconclusive results are not listed. Active and inactive are the calls of the source. Rule for the calls: active = hit-call score of the fitted dose curve at least 0.9, where 1 is the maximum; inconclusive = response in the unintended direction; inactive = score below 0.9.
Select the matching outcome among active, inactive

**Q:** Answer briefly: the call reported for COc1ccc2c(C(=O)c3ccc(Cl)cc3)c(C)n(CC(=O)O)c2c1 in this assay.
**A:** inactive

**Q:** Which result was noted for this molecule in the test: CCOP(=O)(OCC)Oc1ccc([N+](=O)[O-])cc1
**A:** inactive

**Q:** Lab log entry: C#CCN1CC(=O)N(COC(=O)C2C(C=C(C)C)C2(C)C)C1=O (configuration not stated) — outcome as called in the assay?
**A:** inactive

**Q:** What did this assay record as the result for O=C(O)CBr ?
**A:** inactive

**Q:** Hi team, can someone confirm the assay call for CCCC[P+](CC)(CCCC)CCCC (tested in a mixture with another compound) ?
**A:** inactive

**Q:** // param item: Oc1ccc(C2(c3ccc(O)cc3)CCCCC2)cc1 ; yields the recorded call
**A:** active

**Q:** # outcome recorded in this test, key = CCOP(=O)(O)OCC (tested in a mixture with another compound)
**A:** active

**Q:** Which outcome was entered for the molecule C[C@]12Cc3nonc3C[C@@H]1CC[C@@H]1[C@@H]2CC[C@@]2(C)[C@H]1CC[C@]2(C)O in this test?
**A:** active

**Q:** Look up the recorded call for COC(C)(C)C in this test.
**A:** inactive

**Q:** What did this assay record as the result for O=[N+]([O-])c1ccc(Cl)cc1 ?
**A:** inactive

**Q:** For CCC(C)Cl (configuration not stated) , which call appears in the assay record?
**A:** inactive

**Q:** Dear colleague, could you share the recorded outcome for O=NN1CCN(N=O)CC1 when you have a moment?
**A:** inactive

All values here come from PubChem BioAssay (EPA / NIEHS).
